This collection of values is drawn from patent US10039759B2.

Target: UniProt P22455
Sequence (P22455 22-802): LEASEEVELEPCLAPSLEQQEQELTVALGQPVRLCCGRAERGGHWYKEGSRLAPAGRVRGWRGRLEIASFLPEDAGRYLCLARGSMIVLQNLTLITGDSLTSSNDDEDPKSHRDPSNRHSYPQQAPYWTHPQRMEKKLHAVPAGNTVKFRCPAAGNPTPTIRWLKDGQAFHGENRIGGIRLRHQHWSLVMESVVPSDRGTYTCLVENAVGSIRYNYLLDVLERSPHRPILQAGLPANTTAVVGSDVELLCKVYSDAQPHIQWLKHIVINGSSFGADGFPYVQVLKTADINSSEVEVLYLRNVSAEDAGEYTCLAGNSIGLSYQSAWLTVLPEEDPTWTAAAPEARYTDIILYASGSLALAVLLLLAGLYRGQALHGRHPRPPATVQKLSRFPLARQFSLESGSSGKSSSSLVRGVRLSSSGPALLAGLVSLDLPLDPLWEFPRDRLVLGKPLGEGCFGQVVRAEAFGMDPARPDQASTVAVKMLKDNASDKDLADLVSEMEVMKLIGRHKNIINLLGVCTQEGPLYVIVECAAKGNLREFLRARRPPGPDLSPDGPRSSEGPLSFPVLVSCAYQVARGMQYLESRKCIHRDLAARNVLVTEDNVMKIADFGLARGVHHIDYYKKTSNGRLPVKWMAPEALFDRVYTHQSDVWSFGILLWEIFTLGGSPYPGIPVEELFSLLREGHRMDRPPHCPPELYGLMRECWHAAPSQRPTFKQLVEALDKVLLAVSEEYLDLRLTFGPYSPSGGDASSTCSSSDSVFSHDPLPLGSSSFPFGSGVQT
Test: FGFR4 (enzymatic assay), TR-FRET
Format: biochemical
Conditions: FGFR 4 pIC50, 5 μM ATP, 60 min; pIC50 = -log IC50 (M); average if tested multiple times
PARAMETER: IC50 (M)

COc1cc(OC)cc(N(Cc2nccn2S(=O)(=O)N(C)C)c2ccc3ncc(-c4cnn(C)c4)cc3c2)c1 [Compound 9]
1.45e-07
COc1cc(OC)cc(N(CCCO)c2ccc3ncc(-c4cnn(C)c4)cc3c2)c1 [Compound 4]
3.09e-08
COc1cc(OC)cc(N(CCNC(C)C)c2ccc3ncc(-c4cnn(C5CCCCO5)c4)cc3c2)c1 (centres unmarked) [Compound 22]
4.37e-09

(P) COc1cc(OC)cc(N(CCNC(C)C)c2ccc3ncc(-c4cnn(CCS(C)(=O)=O)c4)cc3c2)c1 [Compound 14]
(Q) COc1cc(OC)cc(N(CCCNCC(F)(F)F)c2ccc3ncc(-c4cnn(C)c4)cc3c2)c1 [Compound 5]
(R) COc1cc(OC)cc(N(CCCN2CCCC2CNS(=O)(=O)C(F)(F)F)c2ccc3ncc(-c4cnn(C)c4)cc3c2)c1 (centres unmarked) [Compound 47]
List these items ordered by IC50, big to small. Present the labels in the sequence the task asks for. Q, P, R
(Q: 9.12e-08 M, P: 7.41e-09 M, R: 2.19e-09 M)

(a) COc1cc(OC)cc(N(CC#Cc2nccc(OC)n2)c2ccc3ncc(-c4cnn(C)c4)cc3c2)c1 [Compound 16]
(b) COc1cc(OC)cc(N(Cc2nccn2S(=O)(=O)N(C)C)c2ccc3ncc(-c4ccncc4)cc3c2)c1 [Compound 58]
Hi, I'm comparing a with b and wondering which one has the bigger number for IC50. Any idea? Which one? Tell me its label. b

* * *

Biological target: FGFR2 (h) (Homo sapiens)
Sequence (P21802 22-821): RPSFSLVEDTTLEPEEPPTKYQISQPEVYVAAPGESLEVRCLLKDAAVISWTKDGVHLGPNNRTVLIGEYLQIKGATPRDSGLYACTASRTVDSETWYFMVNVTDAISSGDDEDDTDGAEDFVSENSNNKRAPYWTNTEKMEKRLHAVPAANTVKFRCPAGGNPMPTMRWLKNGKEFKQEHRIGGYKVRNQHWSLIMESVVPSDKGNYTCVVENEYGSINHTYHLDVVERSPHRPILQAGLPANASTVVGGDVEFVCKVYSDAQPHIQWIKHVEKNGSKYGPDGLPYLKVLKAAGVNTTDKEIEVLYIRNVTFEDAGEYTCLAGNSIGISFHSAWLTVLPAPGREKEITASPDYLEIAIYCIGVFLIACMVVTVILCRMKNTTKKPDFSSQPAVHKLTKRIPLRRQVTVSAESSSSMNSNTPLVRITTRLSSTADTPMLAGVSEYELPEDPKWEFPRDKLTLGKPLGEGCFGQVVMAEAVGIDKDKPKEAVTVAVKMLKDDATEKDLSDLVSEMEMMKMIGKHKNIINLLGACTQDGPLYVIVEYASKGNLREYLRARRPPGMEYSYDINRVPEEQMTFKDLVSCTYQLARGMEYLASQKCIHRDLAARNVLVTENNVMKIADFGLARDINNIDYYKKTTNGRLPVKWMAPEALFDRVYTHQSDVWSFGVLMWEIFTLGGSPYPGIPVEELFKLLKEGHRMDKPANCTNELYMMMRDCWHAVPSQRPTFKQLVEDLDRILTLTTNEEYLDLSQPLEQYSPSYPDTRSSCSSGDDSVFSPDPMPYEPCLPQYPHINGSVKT
Assay: FGFR2 (enzymatic assay), TR-FRET
Format: biochemical
Settings: FGFR 2 pIC50, 0.4 μM ATP, 60 min; pIC50 = -log IC50 (M); average if tested multiple times
PARAMETER: IC50 (M)
Supply the numeric figure in M, leaving out any unit text.

COc1cc(OC)cc(N(Cc2ncc[nH]2)c2ccc3ncc(C4=CCNCC4)cc3c2)c1
3.63e-09

Now look at this one.
Fill blank: measured IC50 of the compound `COc1cc(OC)cc(N(CCCN2CCCO2)c2ccc3ncc(-c4cnn(C)c4)cc3c2)c1` is ____. 1.15e-08

* * *

Biological target: FGFR3 (h) (Homo sapiens, UniProt P22607)
Sequence (P22607 23-806): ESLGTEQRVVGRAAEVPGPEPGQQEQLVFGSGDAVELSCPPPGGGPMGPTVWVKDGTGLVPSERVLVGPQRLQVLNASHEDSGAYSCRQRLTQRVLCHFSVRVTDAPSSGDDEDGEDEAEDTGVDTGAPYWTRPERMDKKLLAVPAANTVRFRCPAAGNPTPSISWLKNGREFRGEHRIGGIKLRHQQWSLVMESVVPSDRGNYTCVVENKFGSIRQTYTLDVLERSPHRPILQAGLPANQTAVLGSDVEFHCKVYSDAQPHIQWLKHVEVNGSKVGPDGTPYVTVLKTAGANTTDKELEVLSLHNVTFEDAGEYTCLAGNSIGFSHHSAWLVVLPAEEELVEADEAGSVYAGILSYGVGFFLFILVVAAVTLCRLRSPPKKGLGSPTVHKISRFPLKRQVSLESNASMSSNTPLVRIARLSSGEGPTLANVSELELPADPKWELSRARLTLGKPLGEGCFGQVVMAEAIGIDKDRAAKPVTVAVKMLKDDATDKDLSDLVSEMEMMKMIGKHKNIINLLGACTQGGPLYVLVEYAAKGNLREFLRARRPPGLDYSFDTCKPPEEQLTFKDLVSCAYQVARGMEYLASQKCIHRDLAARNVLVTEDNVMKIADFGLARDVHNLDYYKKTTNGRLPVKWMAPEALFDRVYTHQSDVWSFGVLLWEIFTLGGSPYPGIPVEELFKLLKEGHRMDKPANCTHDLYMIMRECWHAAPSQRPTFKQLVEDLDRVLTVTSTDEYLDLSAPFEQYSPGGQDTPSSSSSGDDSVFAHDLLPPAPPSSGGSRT
Test: FGFR3 (enzymatic assay), TR-FRET
Format: biochemical
Conditions: 25 μM ATP, 60 min; pIC50 = -log IC50 (M); average if tested multiple times; read-out: hFGFR 3 pIC50 (converted)
PARAMETER: IC50 (M)

# example entries with known answers
COc1cc(OC)cc(N(CCCN)c2ccc3ncc(-c4cnn(C)c4)cc3c2)c1
3.39e-09
COc1cc(OC)cc(N(Cc2nccn2S(=O)(=O)N(C)C)c2ccc3ncc(-c4cnn(C)c4)cc3c2)c1
1.1e-08
COc1cc(OC)cc(N(CCCO)c2ccc3ncc(-c4cnn(C)c4)cc3c2)c1
5.89e-09
COc1cc(OC)cc(N(CCO)c2ccc3ncc(-c4ccccc4)cc3c2)c1
5.75e-08
COc1cc(OC)cc(N(Cc2ncccn2)c2ccc3ncc(-c4cnn(C)c4)cc3c2)c1
3.24e-08

(P) COc1cc(OC)cc(N(CC#Cc2nccn2C)c2ccc3ncc(-c4cnn(C)c4)cc3c2)c1
(Q) C#CCN(c1cc(OC)cc(OC)c1)c1ccc2ncc(-c3cnn(C)c3)cc2c1
Two entries are listed, P and Q . Which one carries the higher IC50? Please respond with the label that marks your chosen entry. Q
